Overview of recorded CC50 at 6 days for various molecules
EXPERIMENTAL PROTOCOL: Cytotoxicity determination in HepG2.2.15 cells (CCK-8 cell viability)
Assay type: cell-based
COND: human, 6 days treatment, CCK-8 assay, highest concentration 100 uM
Report the figure in µM without appending any unit label.

Below: 7 molecules and their reported CC50 at 6 days.
CCOC(=O)C1=C(CN2CC(F)(F)[C@@H]3CN(C(=O)C4(C(=O)O)CC4)C[C@@H]32)NC(c2nccs2)=N[C@H]1c1cccc(F)c1C (single isomer, unassigned) : 69.6
CCOC(=O)C1=C(CN2CC(F)(F)[C@H]3[C@@H]2CCN3CCC2(C(=O)O)CC2)NC(c2nccs2)=N[C@H]1c1cccc(F)c1C (single isomer, unassigned) : 24.7
CCOC(=O)C1=C(CN2CC(F)(F)[C@@H]3[C@H]2CON3CCC(C)(C)C(=O)O)NC(c2nccs2)=N[C@H]1c1cccc(F)c1C (relative stereo) [Compound 69A] : 37
CCOC(=O)C1=C(CN2CC(F)(F)C3C(=O)N(C[C@@H](CC)C(=O)O)C[C@@H]32)NC(c2nccs2)=N[C@H]1c1cccc(F)c1C (single isomer, unassigned) [Compound 182A] : 49.6
CCOC(=O)C1=C(CN2CC(F)(F)[C@H]3[C@@H]2CCN3[C@H](C)C(=O)O)NC(c2nccs2)=N[C@H]1c1cccc(F)c1C (single isomer, unassigned) [Compound 26E] : 28.1
CCOC(=O)C1=C(CN2CC(F)(F)C3C2CN(C(C)=O)N3CCC(CC)C(=O)O)NC(c2nccs2)=N[C@H]1c1cccc(F)c1C (stereo partly shown) : 70.3
CCOC(=O)C1=C(CN2CC(F)(F)[C@@H]3C(=O)N(CC(C)(C)c4nn[nH]n4)C[C@@H]32)NC(c2nccs2)=N[C@H]1c1cccc(F)c1C (single isomer, unassigned) : 91.3

Shift focus to the following entry.
Q: Looking for the measured CC50 at 6 days of CCOC(=O)C1=C(CN2CC(F)(F)[C@H]3[C@@H]2CCN3CCOC(C)(C)C(=O)O)NC(c2nccs2)=N[C@H]1c1cccc(F)c1C (single isomer, unassigned) , can you help?
Result: 33.4

----------
Test system: HBV
EXPERIMENTAL PROTOCOL: Anti-HBV activity in HepG2.2.15 cells (HBV DNA in culture medium by qPCR)
Format: cell-based
COND: Hepatitis B virus, HepG2.2.15, 144 h, HepG2.2.15 cells, 6 days treatment, HBV DNA in culture medium quantified by real-time PCR; read-out: EC50
Overview of recorded log10 EC50 for various compounds
Please be aware that the numbers have been log10-transformed from EC50 in nM.

CCOC(=O)C1=C(CN2CC(F)(F)[C@@H]3CN(S(N)(=O)=O)C[C@@H]32)NC(c2nccs2)=N[C@H]1c1cccc(F)c1C (single isomer, unassigned) : 0.38

Q: Looking for the measured log10 EC50 of COC(=O)C1=C(CN2CC(F)(F)[C@@H]3[C@H]2CON3CCC(C)(C)C(=O)O)NC(c2nccs2)=N[C@H]1c1ccc(F)cc1Cl (single isomer, unassigned) , can you help?
Result: 0.95

Q: Looking for the measured log10 EC50 of CCOC(=O)C1=C(CN2CC(F)(F)[C@H]3[C@@H]2CN(C(C)=O)N3CCC(C)(C)C(=O)O)NC(c2nccs2)=N[C@H]1c1ccc(F)c(F)c1F (single isomer, unassigned) [Compound 83B] , can you help?
Result: 1.54

Q: Looking for the measured log10 EC50 of CCOC(=O)C1=C(CN2CC(F)(F)[C@@H]3CN([C@H]4CC[C@H](C(=O)O)CC4)C(=O)[C@@H]32)NC(c2nccs2)=N[C@H]1c1cccc(F)c1C (single isomer, unassigned) [Compound 185B] , can you help?
Result: 0.92

Q: Looking for the measured log10 EC50 of CCOC(=O)C1=C(CN2CC(F)(F)[C@H]3[C@@H]2CCN3[C@@H](C)CC(C)(C)C(=O)O)NC(c2nccs2)=N[C@H]1c1cccc(F)c1C (single isomer, unassigned) [Compound 105B] , can you help?
Result: 2.03

----------
EXPERIMENTAL PROTOCOL: Cytotoxicity determination in HepG2.2.15 cells (CCK-8 cell viability)
Type: cell-based
COND: human, 6 days treatment, CCK-8 assay, highest concentration 100 uM
Overview of recorded CC50 at 6 days for various compounds
Report the figure in µM without appending any unit label.

CCOC(=O)C1=C(CN2CC(F)(F)C3C(=O)N(C[C@H](C)C(=O)O)C[C@@H]32)NC(c2nccs2)=N[C@H]1c1cccc(F)c1C (single isomer, unassigned) [Compound 181B] : 69.9

Q: Looking for the measured CC50 at 6 days of CCOC(=O)C1=C(CN2CCC3C(=O)N(CC(C)(C)C(=O)O)CC32)NC(c2nccs2)=N[C@H]1c1cccc(F)c1C (some centres unmarked) , can you help?
Result: 95.5

Q: Looking for the measured CC50 at 6 days of CCOC(=O)C1=C(CN2C[C@@H](F)[C@]3(F)C(=O)N(CC(C)(C)C(=O)O)C[C@H]23)NC(c2nccs2)=N[C@H]1c1cccc(F)c1C (single isomer, unassigned) [Compound 204D] , can you help?
Result: 48.1

----------
Test system: HBV
EXPERIMENTAL PROTOCOL: Anti-HBV activity in HepG2.2.15 cells (HBV DNA in culture medium by qPCR)
Assay type: cell-based
COND: Hepatitis B virus, HepG2.2.15, 144 h, HepG2.2.15 cells, 6 days treatment, HBV DNA in culture medium quantified by real-time PCR; read-out: EC50
MEASURED METRIC: pEC50
When answering, recall that pEC50 equals minus log10 of the concentration in mol/L, and write that number alone.

CCOC(=O)C1=C(CN2C[C@@H](F)[C@]3(F)C(=O)N(CC(C)(C)C(=O)O)C[C@H]23)NC(c2nccs2)=N[C@H]1c1cccc(F)c1C (single isomer, unassigned) [Compound 204D] : 9.40
CCOC(=O)C1=C(CN2CC(F)(F)[C@H]3[C@@H]2CCN3[C@H](C)C(=O)O)NC(c2nccs2)=N[C@H]1c1cccc(F)c1C (single isomer, unassigned) [Compound 26E] : 8.28

Shift focus to the following entry.
Q: Looking for the measured pEC50 of CCOC(=O)C1=C(CN2CC(F)(F)[C@@H]3[C@H]2CON3C[C@@H](CC)C(=O)O)NC(c2nccs2)=N[C@H]1c1cccc(F)c1C (single isomer, unassigned) [Compound 178A] , can you help?
Result: 8.46

----------
Overview of recorded CC50 at 6 days for various compounds
EXPERIMENTAL PROTOCOL: Cytotoxicity determination in HepG2.2.15 cells (CCK-8 cell viability)
Format: cell-based
COND: human, 6 days treatment, CCK-8 assay, highest concentration 100 uM
Procedure: HepG2.2.15 (the HepG2.2.15 cell line can be produced by transfection of the HepG2 cell line as described in Sells, Chen, and Acs 1987 (Proc. Natl. Acad. Sci. USA 84: 1005-1009), and the HepG2 cell line is available from ATCC® under number HIB-8065™) […] Cell viability was determined by CCK-8 assay. […] The absorbance at 450 nm wavelength and the absorbance at 630 nm wavelength as reference was measured. 2) DATA Analysis EC50 and CC50 values are calculated by the GRAPTIPAD PRISM software.
Write the numeric value and follow it with the unit.

Below: 2 compounds and their reported CC50 at 6 days.
COC(=O)C1=C(CN2CC[C@]3(F)C(=O)N(CC(C)(C)C(=O)O)C[C@H]23)NC(c2nccs2)=N[C@H]1c1ccc(F)c(F)c1Cl (single isomer, unassigned) [Compound 209A] : 23.3 µM
CCOC(=O)C1=C(CN2CC(F)(F)[C@@H]3[C@H]2CCN3CC(=O)O)NC(c2nccs2)=N[C@H]1c1cccc(F)c1C (single isomer, unassigned) : 30.4 µM

Shift focus to the following entry.
Q: Looking for the measured CC50 at 6 days of CCOC(=O)C1=C(CN2C[C@H](F)[C@H]3[C@@H]2CON3CCC(C)(C)C(=O)O)NC(c2nccs2)=N[C@H]1c1cccc(F)c1C (single isomer, unassigned) , can you help?
Result: 24 µM

----------
EXPERIMENTAL PROTOCOL: Cytotoxicity determination in HepG2.2.15 cells (CCK-8 cell viability)
Assay type: cell-based
COND: human, 6 days treatment, CCK-8 assay, highest concentration 100 uM
MEASURED METRIC: CC50 at 6 days

COC(=O)C1=C(CN2CC(F)(F)[C@@H]3C(=O)N(CC(C)(C)C(=O)O)C[C@@H]32)NC(c2ncoc2C)=N[C@H]1c1ccc(F)cc1Cl (single isomer, unassigned) : > 100 µM
CCOC(=O)C1=C(CN2CC(F)(F)[C@@H]3CN(S(=O)(=O)CC(C)(C)C(=O)O)C[C@@H]32)NC(c2nccs2)=N[C@H]1c1cccc(F)c1C (single isomer, unassigned) : 20.9 µM

Shift focus to the following entry.
Q: Looking for the measured CC50 at 6 days of COC(=O)C1=C(CN2CC(F)(F)[C@@H]3C(=O)N(CC(C)(C)C(=O)O)C[C@@H]32)NC(c2nccs2)=N[C@H]1c1ccc(F)cc1Cl (single isomer, unassigned) , can you help?
Result: > 100 µM
